Please go through the items and note down their koff.
target: LecA (Pseudomonas aeruginosa); construct: made in house; assay: Direct binding to immobilized LecA by surface plasmon resonance (SPR)
Sequence (Q05097 whole entry): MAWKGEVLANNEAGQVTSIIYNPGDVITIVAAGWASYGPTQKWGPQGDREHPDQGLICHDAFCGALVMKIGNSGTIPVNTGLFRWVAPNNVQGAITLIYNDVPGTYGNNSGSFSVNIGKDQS
Report as a plain number; the unit s⁻¹ is understood.

LecA (Pseudomonas aeruginosa) koff of O=C(CCc1ccc(O[C@@H]2O[C@H](CO)[C@H](O)[C@H](O)[C@H]2O)cc1)Nc1ccc(OCCCOc2ccc(NC(=O)CCc3ccc(O[C@@H]4O[C@H](CO)[C@H](O)[C@H](O)[C@H]4O)cc3)cc2)cc1 [Compound E2] is 0.00345

LecA (Pseudomonas aeruginosa) koff of O=C(/C=C/c1ccc(O[C@@H]2O[C@H](CO)[C@H](O)[C@H](O)[C@H]2O)cc1)Nc1ccc(OCOc2ccc(NC(=O)/C=C/c3ccc(O[C@@H]4O[C@H](CO)[C@H](O)[C@H](O)[C@H]4O)cc3)cc2)cc1 is 0.00379

LecA (Pseudomonas aeruginosa) koff of O=C(CCc1ccc(O[C@@H]2O[C@H](CO)[C@H](O)[C@H](O)[C@H]2O)cc1)Nc1ccc(OCCOc2ccc(NC(=O)CCc3ccc(O[C@@H]4O[C@H](CO)[C@H](O)[C@H](O)[C@H]4O)cc3)cc2)cc1 [Compound D2] is 0.00284

LecA (Pseudomonas aeruginosa) koff of O=C(/C=C/c1ccc(O[C@@H]2O[C@H](CO)[C@H](O)[C@H](O)[C@H]2O)cc1)Nc1ccc(OCCCOc2ccc(NC(=O)/C=C/c3ccc(O[C@@H]4O[C@H](CO)[C@H](O)[C@H](O)[C@H]4O)cc3)cn2)nc1 is 0.00227
